Experiment: AUC (0 to 24 hrs) in Balb/c mouse at 10 mg/kg, po
Assay type: ADME, organism-based
Parameters: time < 24 hr, dose 10 mg/kg, route oral
Conditions: in vivo
readout_label: AUC(0-t) at 24 h (ng·h/mL)
Expressed in ng·h/mL, but write only the number.

Q) # return recorded AUC(0-t) at 24 h for entry `COc1ccc2c(c1)CCN(C(=O)CCCC(=O)O)[C@H]2C(=O)Nc1cc(F)c([Si](C)(C)C)c(F)c1`
A) 48000

====

Experiment: Cmax in Balb/c mouse at 30 mg/kg, po
Format: ADME, organism-based
Parameters: dose 30 mg/kg, route oral
Settings: in vivo
readout_label: Cmax (ng/mL)
Give just the number in ng/mL; leave the unit off.

Q) Tell me Cmax reported for `COc1ccc2c(c1)CCN(C(=O)CCCC(=O)O)[C@H]2C(=O)Nc1cc(F)c([Si](C)(C)C)c(F)c1`
A) 19000

====

Listed compounds paired with reported bioavailability
Test: Oral bioavailability in mouse at 1 mg/kg administered via cassette dose by LC-MS/MS analysis
Format: ADME, organism-based
Conditions: in vivo
Record the value in %, omitting the unit from your answer.

Worked examples, 5 compounds total:
>>> quantitative_readout("COc1ccc2c(c1)CCN(C(=O)CC(C)(C)CC(=O)O)[C@H]2C(=O)Nc1cc(F)c([Si](C)(C)C)c(F)c1")
40
>>> quantitative_readout("COc1ccc2c(c1)CCN(C(=O)CC(C)(O)CC(=O)O)[C@H]2C(=O)Nc1cc(F)c([Si](C)(C)C)c(F)c1 (stereo partly drawn)")
34
>>> quantitative_readout("COc1ccc2c(c1)OCCN(C(=O)c1cc(O)no1)[C@H]2C(=O)Nc1cc(F)c([Si](C)(C)C)c(F)c1")
9
>>> quantitative_readout("COc1ccc2c(c1)CCN(C(=O)CC1SC(=O)NC1=O)[C@H]2C(=O)Nc1cc(F)c([Si](C)(C)C)c(F)c1 (stereo partly drawn)")
13
>>> quantitative_readout("COc1ccc2c(c1)CCN(C(=O)CCCCC(=O)O)[C@H]2C(=O)Nc1cc(F)c([Si](C)(C)C)c(F)c1")
84

Q) Recall and state the measured bioavailability for `COc1ccc([C@H](C(=O)Nc2cc(F)c([Si](C)(C)C)c(F)c2)N(C)C(=O)CCC(=O)O)cc1` .
A) 8.5

Q) Let me know recorded bioavailability for `COc1ccc2c(c1)CCN(C(=O)c1cc(O)no1)[C@H]2C(=O)Nc1cc(F)c([Si](C)(C)C)c(F)c1` , thanks.
A) 11

Q) Entry COc1ccc2c(c1)CCN(C(=O)CC(C)CC(=O)O)[C@H]2C(=O)Nc1cc(F)c([Si](C)(C)C)c(F)c1 (stereo partly drawn) needs its bioavailability filled in; supply it.
A) 65

Q) Hello, please tell me recorded bioavailability for this one: `COc1ccc([C@H](C(=O)Nc2cc(F)c([Si](C)(C)C)c(F)c2)N(C)C(=O)c2cc(O)no2)cc1`
A) 18

Q) Find the measured bioavailability of `COc1ccc2c(c1)CCN(C(=O)/C=C/C(=O)O)[C@H]2C(=O)Nc1cc(F)c([Si](C)(C)C)c(F)c1` and report it.
A) 51

====

Test system: Mus musculus
Experiment: AUC (0 to 8 hrs) in mouse at 1 mg/kg, po administered via cassette dose by LC-MS/MS analysis
Assay type: ADME, organism-based
Parameters: time < 8 hr, dose 1 mg/kg, route oral
Details: in vivo, 8 h
readout_label: AUC
Write the numeric value and follow it with the unit.

Q) State the measured AUC (Mus musculus) of `COc1ccc([C@H](C(=O)Nc2cc(F)c([Si](C)(C)C)c(F)c2)N(C)C(=O)c2cc(O)no2)cc1`
A) 374 ng·h/mL

====

Assay: AUC (0 to 24 hrs) in Balb/c mouse at 3 mg/kg, po
Assay type: ADME, organism-based
Parameters: dose 3 mg/kg, time < 24 hr, route oral
Conditions: in vivo
readout_label: AUC(0-t) at 24 h (ng·h/mL)
Give just the number in ng·h/mL; leave the unit off.

Q) Identify AUC(0-t) at 24 h associated with the compound `COc1ccc2c(c1)CCN(C(=O)CCCC(=O)O)[C@H]2C(=O)Nc1cc(F)c([Si](C)(C)C)c(F)c1`
A) 10700

====

Assay: AUC (0 to 24 hrs) in Balb/c mouse at 30 mg/kg, po
Format: ADME, organism-based
Parameters: time < 24 hr, dose 30 mg/kg, route oral
Details: in vivo
readout_label: AUC(0-t) at 24 h (µg·h/mL)
Report as a plain number; the unit µg·h/mL is understood.

Q) Quote AUC(0-t) at 24 h reported for `COc1ccc2c(c1)CCN(C(=O)CCCC(=O)O)[C@H]2C(=O)Nc1cc(F)c([Si](C)(C)C)c(F)c1` please.
A) 159

====

Assay: Cmax in Balb/c mouse at 3 mg/kg, po
Format: ADME, organism-based
Parameters: dose 3 mg/kg, route oral
Settings: in vivo
readout_label: Cmax (ng/mL)
The answer is to be given in ng/mL; state only the numeric part.

Q) Supply Cmax value. Item: `COc1ccc2c(c1)CCN(C(=O)CCCC(=O)O)[C@H]2C(=O)Nc1cc(F)c([Si](C)(C)C)c(F)c1`
A) 1630

====

Below, each of the compounds is paired with its reported bioavailability value.
Experiment: Oral bioavailability in mouse at 1 mg/kg administered via cassette dose by LC-MS/MS analysis
Type: ADME, organism-based
Details: in vivo
The reply should be a number in %, with the unit left off.

>>> quantitative_readout("COc1ccc2c(c1)CCN(C(=O)CCCC(=O)O)[C@H]2C(=O)Nc1cc(F)c([Si](C)(C)C)c(F)c1")
94

Q) State its bioavailability: `COc1ccc2c(c1)CCN(C(=O)CCC(=O)O)[C@H]2C(=O)Nc1cc(F)c([Si](C)(C)C)c(F)c1`
A) 51

Q) Give bioavailability for `COc1ccc2c(c1)CCN(C(=O)CCCC(N)=O)[C@H]2C(=O)Nc1cc(F)c([Si](C)(C)C)c(F)c1`
A) 14

Attribution: ChEMBL document CHEMBL4177746
